The values you see were collected from patent US10647713B2.

# assayedSystem: human TYK2 (JH2domain-pseudokinase) (Homo sapiens (Human), UniProt P29597)
# Sequence (P29597 556-888): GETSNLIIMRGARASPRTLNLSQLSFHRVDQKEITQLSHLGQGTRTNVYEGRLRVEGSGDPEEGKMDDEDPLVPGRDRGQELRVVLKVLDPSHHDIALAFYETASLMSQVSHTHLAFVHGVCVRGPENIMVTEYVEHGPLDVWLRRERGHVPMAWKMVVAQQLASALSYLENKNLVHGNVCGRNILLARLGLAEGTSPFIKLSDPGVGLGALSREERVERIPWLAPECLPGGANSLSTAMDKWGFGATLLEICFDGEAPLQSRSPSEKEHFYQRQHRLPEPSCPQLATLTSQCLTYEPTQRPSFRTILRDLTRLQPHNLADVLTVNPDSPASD
# experimentalDetails: TYK2 JH2 Domain Binding Assay (KINOMEscan, DiscoveRx)
# runParameters: 11-point dilution, duplicate
measurementName: Kd

Example results:
compound: COc1c(Nc2cc(Nc3ccc(C)nn3)nc3[nH]c(C)nc23)cccc1-c1nnn(C)n1 [I-100]
assayedSystem: human TYK2 (JH2domain-pseudokinase) (Homo sapiens (Human), UniProt P29597)
Kd: 0.1 to 0.5 nM

compound: COc1c(Nc2cc(Nc3ccc4c(n3)C(F)(F)CC4)nc3[nH]c(C)nc23)cccc1-c1ncnn1C [I-628]
assayedSystem: human TYK2 (JH2domain-pseudokinase) (Homo sapiens (Human), UniProt P29597)
Kd: 0.5 to 1 nM

compound: Cc1c(-c2ccc(Nc3cc(NC(=O)C4CC4)nc4[nH]c(C(F)F)nc34)c(N(C)S(C)(=O)=O)c2)cnn1C [I-198]
assayedSystem: human TYK2 (JH2domain-pseudokinase) (Homo sapiens (Human), UniProt P29597)
Kd: < 0.1 nM

Moving on to another compound below.
Report Kd for CS(=O)(=O)c1cc(-c2ccn(C3CCOCC3)n2)ccc1Nc1cc(NC(=O)C2CC2)nc2[nH]c(C(F)F)nc12 [I-522] tested on human TYK2 (JH2domain-pseudokinase) (Homo sapiens (Human), UniProt P29597).
0.1 to 0.5 nM

====

Overview of reported pKd across a group of compounds:
# assayedSystem: human TYK2 (JH2domain-pseudokinase) (Homo sapiens (Human))
# experimentalDetails: TYK2 JH2 Domain Binding Assay (KINOMEscan, DiscoveRx)
# runParameters: 11-point dilution, duplicate
pKd: −log10 of the molar value.

Here are 3 compounds together with their reported answers.
smilesNotation: CC1(C)COC(c2ccc(Nc3cc(NC(=O)[C@H]4C[C@H]4F)nc4[nH]c(C(F)F)nc34)c(S(C)(=O)=O)c2)=N1
pKd: 8.00 to 9.00
//
smilesNotation: CN(c1cc(-c2cncn2C)ccc1Nc1cc(NC(=O)C2CC2)nc2[nH]c(C(F)F)nc12)S(C)(=O)=O
pKd: > 10.00
//
smilesNotation: Cc1ccc(Nc2cc(Nc3cnc(C)c(C)n3)nc3[nH]c(C)nc23)c(N(C)S(C)(=O)=O)c1
pKd: 9.30 to 10.00

Here is another compound to look at.
Look up pKd for this compound: COc1c(Nc2cc(Nc3cccc(C#N)n3)nc3[nH]c(C)nc23)cccc1-c1ncnn1C
9.00 to 9.30

====

In this section we review reported Kd values for a set of molecules.
# assayedSystem: human TYK2 (JH2domain-pseudokinase) (Homo sapiens (Human))
# experimentalDetails: TYK2 JH2 Domain Binding Assay (KINOMEscan, DiscoveRx)
# runParameters: 11-point dilution, duplicate

# example entries with known answers
molecule: CS(=O)(=O)c1cc(C2CCC2)ccc1Nc1cc(NC(=O)[C@H]2CC2(F)F)nc2[nH]c(C(F)F)nc12
assayedSystem: human TYK2 (JH2domain-pseudokinase) (Homo sapiens (Human))
measurementName: Kd
obsValue: > 10000 pM
--
molecule: COc1c(Nc2cc(Nc3cccc(C#N)n3)nc3[nH]c(C(F)F)nc23)cccc1-c1nc(C)nn1C
assayedSystem: human TYK2 (JH2domain-pseudokinase) (Homo sapiens (Human))
measurementName: Kd
obsValue: 500 to 1000 pM
--
molecule: COc1cc(-c2nc(C)nn2C)ccc1Nc1cc(NC(=O)C2CC2)nc2[nH]c(C(F)F)nc12
assayedSystem: human TYK2 (JH2domain-pseudokinase) (Homo sapiens (Human))
measurementName: Kd
obsValue: 1000 to 10000 pM
--
molecule: CS(=O)(=O)c1ccccc1Nc1cc(Nc2cc3c(nn2)CCC3)nc2[nH]c(C(F)F)nc12
assayedSystem: human TYK2 (JH2domain-pseudokinase) (Homo sapiens (Human))
measurementName: Kd
obsValue: < 100 pM
--
molecule: CS(=O)(=O)c1cc([C@@H]2CCCO2)ccc1Nc1cc(NC(=O)C2CC2(F)F)nc2[nH]c(C(F)F)nc12 (stereo partly shown)
assayedSystem: human TYK2 (JH2domain-pseudokinase) (Homo sapiens (Human))
measurementName: Kd
obsValue: 100 to 500 pM
--
molecule: CN(c1cc([C@@H]2CCCCO2)ccc1Nc1cc(NC(=O)C2CC2)nc2[nH]c(C(F)F)nc12)S(C)(=O)=O
assayedSystem: human TYK2 (JH2domain-pseudokinase) (Homo sapiens (Human))
measurementName: Kd
obsValue: 100 to 500 pM

Param item = Cc1nc2c(Nc3ccc(-c4cn(C)cn4)cc3S(C)(=O)=O)cc(NC(=O)[C@H]3C[C@H]3F)nc2[nH]1 ; retrieve measured Kd.
100 to 500 pM

====

# assayedSystem: human TYK2 (JH2domain-pseudokinase) (Homo sapiens (Human))
# experimentalDetails: TYK2 JH2 Domain Binding Assay (KINOMEscan, DiscoveRx)
# runParameters: 11-point dilution, duplicate
measurementName: Kd

Please review the entries below; each comes with its answer.
compound: Cc1nc2c(Nc3ccc(C4CC4)cc3S(C)(=O)=O)cc(Nc3cnc(C)c(C)n3)nc2[nH]1
Kd: 0.1 to 0.5 nM

compound: CS(=O)(=O)c1cc([C@H]2CCCOC2)ccc1Nc1cc(NC(=O)[C@H]2CC2(F)F)nc2[nH]c(C(F)F)nc12
Kd: 0.5 to 1 nM

compound: Cc1nn(C)cc1-c1ccc(Nc2cc(NC(=O)C3CC3)nc3[nH]c(C(F)F)nc23)c(N(C)S(C)(=O)=O)c1
Kd: 0.1 to 0.5 nM

compound: Cc1nc2c(Nc3ccccc3N(C)S(C)(=O)=O)cc(Nc3cnc(C)c(C)n3)nc2[nH]1
Kd: 0.1 to 0.5 nM

compound: Cc1nc2c(Nc3ccc(-c4ccn(C)n4)cc3S(C)(=O)=O)cc(NC(=O)C3CC3(F)F)nc2[nH]1 (centres unmarked)
Kd: 0.5 to 1 nM

Data request, read-out Kd, for Cc1cc(Nc2cc(Nc3ccc([C@H]4CCCCO4)cc3S(C)(=O)=O)c3nc(C(F)F)[nH]c3n2)nc(C)n1
< 0.1 nM

Same question, CS(=O)(=O)c1cc([C@@H]2CCCOC2)ccc1Nc1cc(NC(=O)[C@H]2CC2(F)F)nc2[nH]c(C(F)F)nc12 this time
1 to 10 nM

Now the same for Cc1nc2c(Nc3ccc(-c4oc(C)cc4C)cc3S(C)(=O)=O)cc(NC(=O)C3CC3)nc2[nH]1
1 to 10 nM

Next: C[S+]([O-])c1ccccc1Nc1cc(NC(=O)C2CC2)nc2[nH]c(C(F)F)nc12 (centres unmarked)
1 to 10 nM

Ok, now COc1cc(-c2cc(C)n(C)n2)ccc1Nc1cc(NC(=O)C2CC2)nc2[nH]c(C(F)F)nc12
1 to 10 nM

Try the compound Cc1nc2c(Nc3ccc(N4CCC4)cc3N(C)S(C)(=O)=O)cc(NC(=O)C3CC3)nc2[nH]1
1 to 10 nM

Also CS(=O)(=O)c1cc(C2COCCO2)ccc1Nc1cc(NC(=O)C2CC2)nc2[nH]c(C(F)F)nc12 (stereo in doubt) [I-613] ?
0.1 to 0.5 nM

Now give it for CS(=O)(=O)c1cc([C@@H]2CCCO2)ccc1Nc1cc(NC(=O)C2CC2)nc2[nH]c(C(F)F)nc12 too.
< 0.1 nM

Can you handle COc1c(Nc2cc(NC(=O)C3CC3)nc3[nH]c(C)nc23)ccc(-c2nn(C)cc2C)c1F next?
> 10 nM

====

# assayedSystem: human TYK2 (JH2domain-pseudokinase) (Homo sapiens (Human))
# experimentalDetails: TYK2 JH2 Domain Binding Assay (KINOMEscan, DiscoveRx)
# runParameters: 11-point dilution, duplicate
pKd: −log10 of the molar value.
measurementName: pKd

Would you please look over these solved cases?
compound: COCc1ccc(Nc2cc(NC(=O)C3CC3)nc3[nH]c(C(F)F)nc23)c(N(C)S(C)(=O)=O)c1 [I-96]
measurementName: pKd
obsValue: 9.30 to 10.00

compound: Cc1nc2c(Nc3ccc(C4CC4)cc3S(C)(=O)=O)cc(Nc3cc4n(n3)CCCCC4)nc2[nH]1 [I-410]
measurementName: pKd
obsValue: 9.30 to 10.00

compound: COc1c(Nc2cc(Nc3ccc4c(n3)CCOC4)nc3[nH]c(C(F)F)nc23)cccc1-c1cnn(C)n1 [I-646]
measurementName: pKd
obsValue: 9.00 to 9.30

compound: [2H]C([2H])([2H])N(c1ccccc1Nc1cc(Nc2cc(C)nc(C)n2)nc2[nH]c(C)nc12)S(=O)(=O)C([2H])([2H])[2H] [I-458]
measurementName: pKd
obsValue: 9.30 to 10.00

Can you look up pKd on human TYK2 (JH2domain-pseudokinase) (Homo sapiens (Human)) for COc1c(Nc2cc(NC(=O)C3CC3)nc3[nH]c(C(F)F)nc23)cccc1-c1nnn(C)n1 [I-14] ?
9.30 to 10.00
